Target: EP2 (Homo sapiens (Human), UniProt P43116)
Sequence (P43116 whole entry): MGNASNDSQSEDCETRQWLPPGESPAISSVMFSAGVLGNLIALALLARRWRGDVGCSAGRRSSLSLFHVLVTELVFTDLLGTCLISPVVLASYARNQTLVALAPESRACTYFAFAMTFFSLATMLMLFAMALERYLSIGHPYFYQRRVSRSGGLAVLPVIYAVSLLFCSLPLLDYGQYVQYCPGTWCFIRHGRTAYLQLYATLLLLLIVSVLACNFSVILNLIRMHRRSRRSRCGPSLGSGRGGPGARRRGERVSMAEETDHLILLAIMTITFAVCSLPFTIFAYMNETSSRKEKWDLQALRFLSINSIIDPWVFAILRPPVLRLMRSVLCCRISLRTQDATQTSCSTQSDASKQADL
Assay: hEP2 cAMP assay (SF295 glioblastoma cells, HTRF cAMP)
Conditions: antagonistic activity
Description: Human tumor cell lines expressing endogenously either EP4 or EP2 are used and cAMP accumulation in cells upon PGE2 stimulation is monitored. […] As a detection method for cAMP the HTRF (homogeneous time resolved fluorescence) Cisbio kit (HTRF cAMP dynamic 2 kit 20'000 tests Cisbio Cat. #62AM4PEC) was used, which is based on a competitive immunoassay using a Cryptate-labeled anti-cAMP antibody and d2-labeled cAMP. […]
reportedMetric: IC50 (nM)
Give bare numbers, in nM.

Known IC50 results, listed for orientation:
CCCc1cc(-c2cc(NCCc3cc4ccsc4cc3OC)ncn2)ccc1CC(=O)O : 180
CCOc1cc(-c2cc(NCCc3ccc4[nH]ccc4c3)ncn2)sc1C(=O)O : 161
CCOc1cc(-c2cc(NCCc3cc4c(cc3F)OCCN4C)ncn2)sc1C(=O)O : 13
CCOc1cc(-c2cc(NCCc3cc4ccccc4cc3OC(C)C)ncn2)ccc1CC(=O)O : 3610
CCOc1cc(-c2cc(NCCc3cc4c(cc3OC)OCCO4)ncn2)ccc1OCC(=O)O : 111
CCOc1cc(-c2cc(NCCc3cc4ccoc4cc3F)ncn2)ccc1CC(=O)O : 373

Please report IC50 for every entry that follows.
1. CCOc1cc(-c2cc(NCCc3cc4ccccc4cc3OC(C)C)ncn2)ccc1OCC(=O)O
2. COc1cc2sccc2cc1CCNc1cc(-c2ccc(C(=O)O)c(OC3CCC3)c2)ncn1
3. CCOc1cc(-c2cc(NCCc3cc4cccnc4cc3F)ncn2)sc1C(=O)O

## Output
[19400, 12, 314]
